# system_under_test: CYP3A4 (Homo sapiens, UniProt P08684)
# Sequence (P08684 whole entry): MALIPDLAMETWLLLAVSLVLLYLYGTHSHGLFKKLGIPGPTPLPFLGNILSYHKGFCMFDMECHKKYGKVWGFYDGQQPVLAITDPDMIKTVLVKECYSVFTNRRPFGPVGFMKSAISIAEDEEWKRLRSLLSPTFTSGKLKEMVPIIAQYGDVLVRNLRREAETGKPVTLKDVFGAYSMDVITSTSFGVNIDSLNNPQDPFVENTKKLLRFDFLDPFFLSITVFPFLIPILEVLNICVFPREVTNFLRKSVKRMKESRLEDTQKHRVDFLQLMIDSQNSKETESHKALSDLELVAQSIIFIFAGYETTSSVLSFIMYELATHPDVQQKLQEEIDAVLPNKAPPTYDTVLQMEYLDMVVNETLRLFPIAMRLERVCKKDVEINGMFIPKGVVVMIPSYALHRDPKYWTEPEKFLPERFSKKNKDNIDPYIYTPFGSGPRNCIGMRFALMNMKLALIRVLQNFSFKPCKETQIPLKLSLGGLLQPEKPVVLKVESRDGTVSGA
readout_name: IC50

IC50 recorded for this compound, "C[C@@]1(c2cc(Nc3ncccc3N)ccc2F)CCSC(N)=N1" , is > 21 µM

###

# system_under_test: hERG (IKr) (Homo sapiens)
# Construct: expressed in transfected cells; host or cells: HEK293
# Sequence (Q12809 whole entry): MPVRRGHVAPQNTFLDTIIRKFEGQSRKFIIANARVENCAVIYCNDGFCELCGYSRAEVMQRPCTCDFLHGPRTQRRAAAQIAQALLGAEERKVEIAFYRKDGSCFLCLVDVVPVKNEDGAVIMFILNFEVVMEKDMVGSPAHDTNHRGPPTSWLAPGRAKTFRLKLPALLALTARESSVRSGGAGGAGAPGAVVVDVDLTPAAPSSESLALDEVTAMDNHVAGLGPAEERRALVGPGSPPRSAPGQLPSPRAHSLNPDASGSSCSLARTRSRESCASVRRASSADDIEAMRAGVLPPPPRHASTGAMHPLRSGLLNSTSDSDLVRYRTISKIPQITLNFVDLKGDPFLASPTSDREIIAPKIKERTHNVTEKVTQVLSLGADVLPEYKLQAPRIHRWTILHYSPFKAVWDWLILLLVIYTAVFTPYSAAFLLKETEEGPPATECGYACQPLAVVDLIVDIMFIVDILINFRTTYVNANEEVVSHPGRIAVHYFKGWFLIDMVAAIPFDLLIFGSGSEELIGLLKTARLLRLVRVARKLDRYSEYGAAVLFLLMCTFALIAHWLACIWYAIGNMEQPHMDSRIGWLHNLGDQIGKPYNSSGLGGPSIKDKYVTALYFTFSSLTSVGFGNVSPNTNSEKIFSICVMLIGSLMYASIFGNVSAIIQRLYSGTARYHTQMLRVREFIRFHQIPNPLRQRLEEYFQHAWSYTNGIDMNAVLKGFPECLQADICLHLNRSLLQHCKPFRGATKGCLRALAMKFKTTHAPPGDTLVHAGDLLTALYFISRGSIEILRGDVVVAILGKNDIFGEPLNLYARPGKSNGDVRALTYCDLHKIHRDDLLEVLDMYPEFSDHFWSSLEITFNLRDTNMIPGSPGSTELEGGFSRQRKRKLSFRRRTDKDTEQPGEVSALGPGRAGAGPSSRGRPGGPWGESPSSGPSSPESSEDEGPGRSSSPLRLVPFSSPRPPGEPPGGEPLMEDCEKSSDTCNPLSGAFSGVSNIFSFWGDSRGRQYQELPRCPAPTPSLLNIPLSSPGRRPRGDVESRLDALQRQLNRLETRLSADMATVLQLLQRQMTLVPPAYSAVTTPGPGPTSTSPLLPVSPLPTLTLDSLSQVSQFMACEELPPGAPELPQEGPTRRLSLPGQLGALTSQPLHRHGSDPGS
# measurement_notes: hERG test
# Assay type: cell-based
# measurement_setup: pH 7.4, HEK293 cells expressing hERG channel, whole cell patch clamp, concentration not given, read-out: % inhibition relative to the tail peak current (IKr)
readout_name: inhibition at 10 min
Answer shape: numeric part, then the unit.

Lab note: compound C[C@@]1(c2cc(Nc3ccncn3)ccc2F)CCSC(N)=N1 [Compound I-1] tested on hERG (IKr) (Homo sapiens); recorded inhibition at 10 min was 3.2%
